The reported numbers originate from patent EP4806514A2.

Molecular target: T1, hCDH17-his (full length extracellular domain of human CDH17, Q23-M787, his tag at the C-terminal) (human, UniProt Q12864 23-787)
T1 construct: Limits of the construct (UniProt Q12864, Q23-M787, C-terminal his tag); also called human CDH17-his protein; human CDH17 protein
T1 sequence: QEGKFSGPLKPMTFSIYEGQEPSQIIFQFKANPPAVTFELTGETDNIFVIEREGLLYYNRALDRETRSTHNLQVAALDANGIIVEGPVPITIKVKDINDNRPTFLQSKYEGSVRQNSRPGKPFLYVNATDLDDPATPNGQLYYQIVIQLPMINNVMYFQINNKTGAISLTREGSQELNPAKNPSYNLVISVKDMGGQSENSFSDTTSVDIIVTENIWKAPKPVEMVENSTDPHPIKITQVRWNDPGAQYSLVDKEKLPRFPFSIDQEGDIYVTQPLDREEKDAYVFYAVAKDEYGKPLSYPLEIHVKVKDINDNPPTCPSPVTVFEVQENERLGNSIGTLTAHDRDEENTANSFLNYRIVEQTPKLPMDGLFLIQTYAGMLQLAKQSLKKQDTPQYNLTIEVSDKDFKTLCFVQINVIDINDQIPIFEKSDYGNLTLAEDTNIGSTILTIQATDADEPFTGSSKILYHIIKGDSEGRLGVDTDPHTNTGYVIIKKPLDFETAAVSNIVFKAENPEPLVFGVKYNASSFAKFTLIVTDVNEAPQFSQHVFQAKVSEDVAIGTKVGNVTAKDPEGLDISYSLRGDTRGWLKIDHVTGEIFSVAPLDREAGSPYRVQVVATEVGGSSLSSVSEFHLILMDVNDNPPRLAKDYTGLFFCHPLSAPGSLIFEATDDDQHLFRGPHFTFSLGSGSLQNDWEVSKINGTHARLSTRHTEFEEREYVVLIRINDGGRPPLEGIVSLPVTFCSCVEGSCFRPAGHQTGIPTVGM
Assay: SPR (Biacore 8K), two doses, antibody captured on Protein A chip, hCDH17-his at 25 nM and 100 nM

[
  {
    "BINDER": "29H8D3-z12p17 (antibody, V domains shown, PTM-removed variant of 29H8D3-z12; VH is that of 29H8D3-z12) VH: QVQLVQSGAEVKKPGASVKVSCKASGYTFTDHTIHWMRQRPGQGLEWIGYIYPRDGYTKYNEKFKDRATLTADTSTSTAYMELRSLRSDDTAVYYCARFYYGYWYFDVWGQGTTVTVSS VL: DIVMTQSPLSLPVTPGEPASISCRSSKSLLRSNGNTYLYWFLQKPGQSPQVLIYRMSNLASGVPDRFSGSGSGTDFTLKISRVEAEDVGVYYCGQHLEYPFTFGQGTKLEIK",
    "binding result": "binds"
  },
  {
    "BINDER": "29H8D3-z12p15 (antibody, V domains shown, PTM-removed variant of 29H8D3-z12; VH is that of 29H8D3-z12) VH: QVQLVQSGAEVKKPGASVKVSCKASGYTFTDHTIHWMRQRPGQGLEWIGYIYPRDGYTKYNEKFKDRATLTADTSTSTAYMELRSLRSDDTAVYYCARFYYGYWYFDVWGQGTTVTVSS VL: DIVMTQSPLSLPVTPGEPASISCRSSKSLLRSNGNTYLYWFLQKPGQSPQVLIYRMSNLASGVPDRFSGSGSGTDFTLKISRVEAEDVGVYYCNQHLEYPFTFGQGTKLEIK",
    "binding result": "binds"
  },
  {
    "BINDER": "69E3H11-z12a28 (antibody, V domains shown) VH: QVQLVQSGAEVKKPGASVKVSCKASGYTFTTYWMHWVKQAPGQRLEWIGEIDPSDSYANYNQKFKGKATLTVDKSASTAYMELSSLRSEDTAVYYCALYYGYGDWGQGTTVTVSS VL: EIVLTQSPGTLSLSPGERATLSCSVSSSISSIHLHWYQQKPGQAPRLLIYRTKNLASGIPDRFSGSGSGTDFTLTISRLEPEDFAVYYCQQGSNLPLTFGQGTRLEIK",
    "binding result": "binds"
  }
]
